# Tested on: Staphylococcus aureus ATCC 43300
ATTRIBUTE MEASURED: MIC (µM)
Give bare numbers, in µM.

Please report the recorded MIC for NC(=O)[C@H](CCCN=C(N)N)NC(=O)[C@H](CS)NC(=O)[C@H](Cc1ccc(O)cc1)NC(=O)[C@H](Cc1c[nH]c2ccccc12)NC(=O)[C@H](CCCN=C(N)N)NC(=O)[C@@H](N)Cc1c[nH]c2ccccc12 .
66

----------
Consider the following molecules; for each one, report its MIC.
# Tested on: Candida albicans

A selection of reference data follows.
| INPUT SMILES | MIC |
| --- | --- |
| CC[C@H](C)[C@H](NC(=O)[C@H](CO)NC(=O)[C@@H]1CCCN1C(=O)[C@H](CCCN=C(N)N)NC(=O)[C@H](Cc1c[nH]c2ccccc12)NC(=O)[C@H](Cc1c[nH]c2ccccc12)NC(=O)[C@H](Cc1ccc(O)cc1)NC(=O)[C@H](CCC(N)=O)NC(=O)[C@H](CCCCN)NC(=O)[C@H](CC(C)C)NC(=O)[C@@H]1CCCN1C(=O)[C@@H](N)Cc1cnc[nH]1)C(=O)O | 11 µM |
| CC[C@H](C)[C@H](NC(=O)[C@H](CCC(=O)O)NC(=O)[C@H](CCCCN)NC(=O)[C@H](CCSC)NC(=O)[C@H](CCCCN)NC(=O)[C@H](C)NC(=O)[C@H](CC(C)C)NC(=O)[C@H](Cc1ccccc1)NC(=O)[C@H](C)NC(=O)[C@H](CCC(N)=O)NC(=O)[C@H](CC(C)C)NC(=O)[C@H](CCCN=C(N)N)NC(=O)CN)C(=O)N[C@@H](C)C(=O)N[C@@H](C)C(=O)N[C@@H](CCC(N)=O)C(=O)N[C@H](C(=O)N[C@@H](CC(C)C)C(N)=O)[C@@H](C)O | 1.77 µM |

Please report the recorded MIC for CC(=O)N[C@@H](CCCCN)C(=O)N[C@@H](Cc1ccc(O)cc1)C(=O)N[C@H](C(=O)NCC(=O)N[C@@H](CCCCN)C(=O)N[C@@H](CS)C(=O)N[C@@H](Cc1ccc(O)cc1)C(=O)N[C@@H](CCCCN)C(=O)N[C@@H](CCCCN)C(=O)N[C@@H](CCCCN)C(=O)N[C@@H](CC(N)=O)C(=O)N[C@@H](CCC(=O)O)C(=O)N[C@@H](CS)C(=O)N[C@@H](CCCCN)C(N)=O)[C@@H](C)O .
2.5 µM
